Measured target: T1, calmodulin, wild type, full-length (aa 1-148) (human, UniProt P0DP23 1-149)
T1 construct: human calmodulin, full-length, aa 1-148; numbers count on: the protein without the initial Met (UniProt numbers are one higher); Ca2+-saturated ((Ca2+)4-CaM) and Ca2+-depleted (apo) states are the same molecule; the state is told by the assay; 15N-labelled in some NMR samples; also called CaM; WT CaM; source: bacterially overexpressed (pT7-7 vector) and purified; also bacterially coexpressed with …
Measurement description: other fluorescence titration; YFP-CFP FRET biosensor (>=1 nM) with Ca2+-saturated WT or mutant CaM, emission spectra and equilibrium titrations; 50 mM HEPES, 100 mM KCl, 1 mM MgCl2, 50 uM EGTA, 5 mM NTA, 1.5 uM BSA, 500 uM DTT, 1 mM CaCl2, pH 7.4, 22 C
Ends that are not written are not given here.
Parameter Kd: see the listing below.
Answer with a number only, understood to be in nM.

MAAAIASSLIRQKRQARESNSDR (domain or fragment, source: expressed from a pET21B vector) [FGF12ALTP biosensor (FGF12A LTP, residues 1-23, between YFP and CFP)]
576
RSLCERHVLGVFSKVRFCSGRKRPVRR (domain or fragment, cysteine pairing not given here; also: fused between YFP and CFP, source: expressed from a pET21B vector) [FGF12A_(CaMBD) biosensor (FGF12A CaMBD, residues 38-64, between YFP and CFP)]
107
KTSCDKNKLNVFSRVKLFGSKKRRRR (domain or fragment, also: fused between YFP and CFP, source: expressed from a pET21B vector) [FGF13A_(CaMBD) biosensor (FGF13A CaMBD, residues 35-60, between YFP and CFP)]
13

Shifting focus to the binder that follows.
Given KSLCQKQLLILLSKVRLCGGRPARPDR (domain or fragment, cysteine pairing not given here; also: fused between YFP and CFP, source: expressed from a pET21B vector) [FGF11A_(CaMBD) biosensor (FGF11A CaMBD, residues 36-62, between YFP and CFP)] , state its recorded Kd. 19
